Target: His-YY1 ZF1+ZF2+ZF3 del382-end (UniProt P25490)
Sequence (P25490 1-381): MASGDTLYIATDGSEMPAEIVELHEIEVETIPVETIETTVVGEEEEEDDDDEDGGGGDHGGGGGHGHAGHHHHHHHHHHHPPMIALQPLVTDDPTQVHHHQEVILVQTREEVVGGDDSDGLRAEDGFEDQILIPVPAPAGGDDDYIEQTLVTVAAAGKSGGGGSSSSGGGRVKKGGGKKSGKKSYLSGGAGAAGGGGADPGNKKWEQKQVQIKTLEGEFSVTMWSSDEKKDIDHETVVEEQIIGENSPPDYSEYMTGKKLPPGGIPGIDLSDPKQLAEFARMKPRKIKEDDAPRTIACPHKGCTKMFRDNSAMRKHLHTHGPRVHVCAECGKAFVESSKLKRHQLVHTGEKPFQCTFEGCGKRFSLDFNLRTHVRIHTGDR
Assay: EMSA
Settings: EMSA: 10 mM HEPES-KOH, 12 mM Tris-HCl, 50 mM NaCl, 50 mM KCl, 5 mM MgCl2, 100 uM ZnCl2, 0.01% NP-40, 5% glycerol, 2.5 mM DTT, pH 7.4, 25 C, 2.5 nM probe; FP: …
pKd: −log10 of the molar value.
REPORTED_PROPERTY: pKd

INSERT INTO measurements (chain_sequence, meas_value) VALUES
  ('GGGGCCGGGGCCGGGGCCGGGGCCGGGGCCGGGGCCGGGGCCGGGGCC [(GGGGCC)8 RNA]', 7.23);

* * *

Target: His-YY1 ZF1+ZF2 del352-end (UniProt P25490)
Sequence (P25490 1-351): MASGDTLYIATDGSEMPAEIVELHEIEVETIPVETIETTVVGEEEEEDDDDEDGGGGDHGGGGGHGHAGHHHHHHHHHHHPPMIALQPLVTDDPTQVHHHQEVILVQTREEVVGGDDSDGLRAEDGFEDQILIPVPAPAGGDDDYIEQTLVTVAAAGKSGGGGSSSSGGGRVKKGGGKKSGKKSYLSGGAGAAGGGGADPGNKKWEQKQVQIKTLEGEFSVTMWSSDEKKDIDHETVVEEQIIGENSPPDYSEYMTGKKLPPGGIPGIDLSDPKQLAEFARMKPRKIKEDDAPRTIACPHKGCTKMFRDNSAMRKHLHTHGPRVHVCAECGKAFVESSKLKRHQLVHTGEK
Assay: EMSA
Settings: EMSA: 10 mM HEPES-KOH, 12 mM Tris-HCl, 50 mM NaCl, 50 mM KCl, 5 mM MgCl2, 100 uM ZnCl2, 0.01% NP-40, 5% glycerol, 2.5 mM DTT, pH 7.4, 25 C, 2.5 nM probe; FP: …
REPORTED_PROPERTY: Kd (µM)

INSERT INTO assay_data (chain_sequence, meas_value) VALUES
  ('GGGGCCGGGGCCGGGGCCGGGGCCGGGGCCGGGGCCGGGGCCGGGGCC [(GGGGCC)8 RNA]', 0.129);
